# ASSAY COMMENT: Drug uptake in Wistar rat brain at 0.3 mg/kg, sc after 2 hrs
# Format: ADME, organism-based
# EXPERIMENTAL CONTEXT: read-out: Drug uptake
PROPERTY: concentration at 2 h

>>> meas_value("c1ccc2sc(NC3=NCC4(CN5CCC4CC5)N3)nc2c1 (stereo unspecified)")
"58 nM"

====

# MEASURED ON: 5-hydroxytryptamine receptor 3A (Homo sapiens, UniProt P46098)
# Sequence (P46098 whole entry): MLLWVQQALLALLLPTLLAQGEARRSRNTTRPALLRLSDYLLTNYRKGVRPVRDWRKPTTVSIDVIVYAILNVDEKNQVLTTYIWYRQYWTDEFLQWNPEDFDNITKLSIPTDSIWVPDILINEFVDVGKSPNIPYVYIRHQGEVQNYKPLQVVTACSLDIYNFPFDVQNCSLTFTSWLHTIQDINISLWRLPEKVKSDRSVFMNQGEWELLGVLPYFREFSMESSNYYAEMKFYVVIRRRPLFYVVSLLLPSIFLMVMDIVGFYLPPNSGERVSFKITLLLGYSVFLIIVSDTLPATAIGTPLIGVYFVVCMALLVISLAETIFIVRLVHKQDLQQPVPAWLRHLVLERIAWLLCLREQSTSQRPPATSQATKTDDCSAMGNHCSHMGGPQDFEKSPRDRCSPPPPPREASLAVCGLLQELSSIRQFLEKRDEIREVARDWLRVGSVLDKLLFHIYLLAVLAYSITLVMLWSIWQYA
# ASSAY COMMENT: Antagonist activity at 5-HT3A receptor (unknown origin) assessed as decrease in calcium influx by Fluo-4-AM dye based FLIPR assay
pIC50: −log10 of the molar value.
PROPERTY: pIC50

>>> meas_value("COc1ccc2nc(NC3=NCC4(CN5CCC4CC5)N3)sc2c1 (racemic)")
4.49
>>> meas_value("COc1ccc2sc(NC3=NCC4(CN5CCC4CC5)N3)nc2c1 (racemic)")
7.29
>>> meas_value("Clc1ccc(NC2=NCC3(CN4CCC3CC4)N2)nc1 (racemic)")
6.07
>>> meas_value("Clc1ccc2nc(NC3=NCC4(CN5CCC4CC5)N3)sc2c1 (racemic)")
4.74
>>> meas_value("Clc1cnc(NC2=NCC3(CN4CCC3CC4)N2)nc1 (racemic)")
6.21
>>> meas_value("c1ccc2c(NC3=NCC4(CN5CCC4CC5)N3)ncnc2c1 (racemic)")
4.84
>>> meas_value("c1ccc2sc(NC3=NCC4(CN5CCC4CC5)N3)nc2c1 (stereo not given)")
7.59
>>> meas_value("c1cn(-c2cc(NC3=NCC4(CN5CCC4CC5)N3)ncn2)cn1 (racemic)")
5.19

====

# MEASURED ON: UniProtKB P46098
# ASSAY COMMENT: Antagonist activity at 5-HT3A receptor (unknown origin) assessed as decrease in calcium influx by Fluo-4-AM dye based FLIPR assay
pIC50: −log10 of the molar value.
Threshold rule: pIC50 greater than or equal to 5 is class 1; below that, class 0.

>>> qualitative_label("Clc1ccc2c(NC3=NCC4(CN5CCC4CC5)N3)ncnn12 (centres undefined)")
"class 0"
>>> qualitative_label("CN1C(Nc2nc3ccccc3s2)=NCC12CN1CCC2CC1 (centres undefined)")
"class 1"
>>> qualitative_label("c1ccc2oc(NC3=NCC4(CN5CCC4CC5)N3)nc2c1 (racemic)")
"class 1"
>>> qualitative_label("Clc1cccc2sc(NC3=NCC4(CN5CCC4CC5)N3)nc12 (racemic)")
"class 1"
>>> qualitative_label("c1ccc2nc(NC3=NCC4(CN5CCC4CC5)N3)cnc2c1 (racemic)")
"class 1"
>>> qualitative_label("Clc1ccc2nc(NC3=NCC4(CN5CCC4CC5)N3)sc2n1 (racemic)")
"class 0"
>>> qualitative_label("Clc1cnc(NC2=NCC3(CN4CCC3CC4)N2)cn1 (racemic)")
"class 1"
